Every entry's value here was drawn from the supplement of paper PMC12636428.

# Test system: Saccharomyces cerevisiae
# run-description: transcriptional activation domain activity (GFP:mCherry ratio, weighted mean of sorted bins, harmonized to initial dataset scale) (arbitrary fluorescence ratio units); higher = stronger transcriptional activation
# test-context: beta-estradiol 1 µM; induction time 4 h
Outcome label depends on transcriptional activation domain activity relative to 30000: at/above gives yes (1), below gives no (0).

Would you please look over these solved cases?
chain	target	class-label
MMHCLRYFLLLLFLPFPSAPPYLLLLFIVSMFLYHRPCAYCTFLIMSIFSATC	Saccharomyces cerevisiae	yes (1)
LIHFFRLYRSGHGPIRMFFLHIQALYNLFNLIFSWFALANLWLTFSIIIRLVP	Saccharomyces cerevisiae	yes (1)
MDTTDASRGRSKACTYCNKSKTKCMWAGEPGAGACQRCTRLRRSCILPEKGER	Saccharomyces cerevisiae	no (0)
MSDDLGASPTQRPLRKSHRKSRKGCLDCRRRRVKCGEERPSCLVCVRRNVRCE	Saccharomyces cerevisiae	yes (1)
AAKPAPKKAPGRPKKAAAEPEPASEPTESEEPKPKKAGGRPRKAAAPAAEPEA	Saccharomyces cerevisiae	yes (1)

Let's switch to this sequence now.
Ask: Please check the record `AFEVSGKGRSRTREKVTLDLEELAGGAIDMSKSDLEHLVIHLFIKSYLRMSFV` and state if its transcriptional activation domain activity is at or above 30000.
Reply: yes (1)
